System Under Test: T1, human IL-23 (IL-23-His-Biotin) (human, UniProt Q9NPF7 20-189; P29460 23-328, biotin label, site not stated)
T1 construct: Akesobio lot 20161209; His-tagged and biotinylated
T1 sequence (looked up) 1: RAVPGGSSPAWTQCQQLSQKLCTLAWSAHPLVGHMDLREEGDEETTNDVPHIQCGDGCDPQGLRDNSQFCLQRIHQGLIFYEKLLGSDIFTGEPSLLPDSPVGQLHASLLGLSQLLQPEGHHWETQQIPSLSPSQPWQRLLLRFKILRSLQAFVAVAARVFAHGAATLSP
T1 sequence (looked up) 2: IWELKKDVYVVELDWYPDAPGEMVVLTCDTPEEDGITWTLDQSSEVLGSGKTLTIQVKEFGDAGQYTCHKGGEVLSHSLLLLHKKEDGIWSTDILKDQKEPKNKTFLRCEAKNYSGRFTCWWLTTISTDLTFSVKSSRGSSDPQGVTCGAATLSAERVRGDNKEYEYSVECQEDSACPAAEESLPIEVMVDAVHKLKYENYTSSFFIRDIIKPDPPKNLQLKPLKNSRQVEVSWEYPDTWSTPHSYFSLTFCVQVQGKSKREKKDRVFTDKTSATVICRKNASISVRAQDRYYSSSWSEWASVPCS
Procedure Details: FACS competition, IL-23-His-Biotin 2 µg/mL on 293T-IL-12Rβ1&IL-23R cells; antibody 30 µg/mL
Readout Label: MFI (MFI)
Your answer is read as MFI, so omit the unit and give the number.

// worked examples, MFI included
H5L12 (antibody, human IgG1, kappa, V domains shown, human IgG1 / kappa constant regions; also called humanized antibody H5L12) VH: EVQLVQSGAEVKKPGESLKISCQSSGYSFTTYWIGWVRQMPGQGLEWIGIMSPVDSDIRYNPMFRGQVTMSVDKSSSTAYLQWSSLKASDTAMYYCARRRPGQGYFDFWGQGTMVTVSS VL: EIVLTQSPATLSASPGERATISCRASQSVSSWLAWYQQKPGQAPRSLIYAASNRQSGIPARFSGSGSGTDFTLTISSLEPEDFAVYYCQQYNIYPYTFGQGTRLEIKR | 12.3
H5L11 (antibody, human IgG1, kappa, V domains shown, human IgG1 / kappa constant regions; also called humanized antibody H5L11) VH: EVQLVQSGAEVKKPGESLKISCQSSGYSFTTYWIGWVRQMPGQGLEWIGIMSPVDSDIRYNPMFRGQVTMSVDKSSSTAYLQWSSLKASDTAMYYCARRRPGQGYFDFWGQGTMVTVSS VL: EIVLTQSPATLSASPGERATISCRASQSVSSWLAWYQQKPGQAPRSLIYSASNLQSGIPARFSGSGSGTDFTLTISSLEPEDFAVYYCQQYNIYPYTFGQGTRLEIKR | 12.9

Okay, next one:
query: I would be grateful if you could share the reported MFI for H5L9 (antibody, human IgG1, kappa, V domains shown, human IgG1 (P01857) / kappa (P01834) constant regions; also called humanized antibody H5L9) VH: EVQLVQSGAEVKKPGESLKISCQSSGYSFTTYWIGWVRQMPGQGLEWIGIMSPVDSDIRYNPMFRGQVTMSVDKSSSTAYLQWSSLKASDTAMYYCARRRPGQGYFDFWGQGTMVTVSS VL: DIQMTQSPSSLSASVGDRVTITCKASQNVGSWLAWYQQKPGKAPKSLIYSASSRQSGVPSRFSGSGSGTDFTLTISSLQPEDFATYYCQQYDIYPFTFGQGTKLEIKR .
result: 104
